Target: T1, CRBN, Q96SW2;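 note: pooled lentiviral library of zinc finger degron-EGFP fusions in mCherry-positive Jurkat cells, FACS-sorted after compound exposure, with degron abundance counted by next-generation sequencing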
T1 chain: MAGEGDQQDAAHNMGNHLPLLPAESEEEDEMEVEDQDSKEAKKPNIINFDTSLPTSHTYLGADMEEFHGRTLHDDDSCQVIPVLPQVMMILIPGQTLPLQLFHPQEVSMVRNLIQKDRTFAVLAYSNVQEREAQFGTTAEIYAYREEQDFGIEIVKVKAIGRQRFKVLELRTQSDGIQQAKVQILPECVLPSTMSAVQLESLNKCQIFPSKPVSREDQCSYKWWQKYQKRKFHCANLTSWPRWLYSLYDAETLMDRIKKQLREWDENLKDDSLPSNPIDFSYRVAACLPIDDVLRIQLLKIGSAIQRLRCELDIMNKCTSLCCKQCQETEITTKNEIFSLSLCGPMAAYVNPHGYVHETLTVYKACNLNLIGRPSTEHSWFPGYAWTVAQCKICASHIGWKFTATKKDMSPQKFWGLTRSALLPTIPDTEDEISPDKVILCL
Experiment: log2 fold change of degron read counts, EGFP-low vs EGFP+ sorted cells (limma voom), compound-induced degradation; higher = more compound-induced degradation of the degron-EGFP fusion; degrons are variants of IKZF1/3 zinc finger 2; compound dose not given here
Conditions: Jurkat; 18 h; compound: compound 19 (5-tert-butyl-thalidomide)
Whole data set: some 8,300 sequences, median “log2 fold change of degron read counts, EGFP-low vs EGFP+ sorted cells (limma voom), compound-induced degradation” near -1.1, cut for the highest 2% near 3.2. The list comes from a sample in which the highest values are over-represented; it also holds close analogues and randomly drawn sequences.
Label scheme for log2 fold change of degron read counts: lower than 0.6 is NOT MET, 0.6 and above is MET.

sequence-string: FICEICGARFTQKGNLLRHIKL [46F_47I_49E_50I_52G_53A_54R_55F_67L_, Q9UKT9]
label-class: MET
//
sequence-string: FYCEICGARFTQKGNLLRHIKL [46F_47Y_49E_50I_52G_53A_54R_55F_67L_, Q9UKT9]
label-class: MET
//
sequence-string: FHCEICGARFTQKGNLLRHIKL [46F_47H_49E_50I_52G_53A_54R_55F_67L_, Q9UKT9]
label-class: MET
//
sequence-string: FQCEICGARFTQKGNLLRHIKL [46F_47Q_49E_50I_52G_53A_54R_55F_67L_, Q9UKT9]
label-class: NOT MET
//
sequence-string: FLCEICGARFTQKGNLLRHIKL [46F_47L_49E_50I_52G_53A_54R_55F_67L_, Q9UKT9]
label-class: NOT MET
//
sequence-string: FQCEICGAWFTQKGNLLRHIKL [46F_47Q_49E_50I_52G_53A_54W_55F_67L_, Q9UKT9]
label-class: NOT MET
//
sequence-string: FMCEICGARFTQKGNLLRHIKL [46F_47M_49E_50I_52G_53A_54R_55F_67L_, Q9UKT9]
label-class: NOT MET

From: the supplement of paper PMC12645437
